# method: Cytotoxicity in MDCK cells assessed as reduction in cell viability incubated for 48 hrs by MTT assay
# Assay type: cell-based, Canis lupus familiaris
# details: dog
reported.metric: CC50 at 48 h

[
  {
    "mol.smiles": "FC(F)(F)Oc1ccc(-c2cn(CC3=C(Cl)c4ccc(-c5cccs5)nc4CC3)nn2)cc1",
    "reported.metric": "CC50 at 48 h",
    "measured.result": "> 300 µg/mL"
  },
  {
    "mol.smiles": "CC(C)(C)c1nn(-c2cc(Cl)cc(Cl)c2OCc2cn(CC3=C(Cl)c4ccc(-c5cccs5)nc4CC3)nn2)c(=O)o1",
    "reported.metric": "CC50 at 48 h",
    "measured.result": "> 300 µg/mL"
  },
  {
    "mol.smiles": "FC(F)(F)c1cc(-c2cn(CC3=C(Cl)c4ccc(-c5cccs5)nc4CC3)nn2)cc(C(F)(F)F)c1",
    "reported.metric": "CC50 at 48 h",
    "measured.result": "35 µg/mL"
  },
  {
    "mol.smiles": "ClC1=C(Cn2cc(C3CC3)nn2)CCc2nc(-c3cccs3)ccc21",
    "reported.metric": "CC50 at 48 h",
    "measured.result": "> 300 µg/mL"
  }
]
